assay_name: Plasma pharmacokinetics of lorlatinib at steady state (LC-MS/MS, non-compartmental analysis)
Format: in vivo, human
experimental_setup: human, plasma, oral, 60 mg/m2, steady state; Cohort A1; 60 mg/m^2 QD; (CV); read-out: AUCtau
measurement_label: AUC (ng·h/mL)
Respond numerically; units are ng·h/mL and should not be typed.

Look up AUC for this molecule: C[C@H]1Oc2cc(cnc2N)-c2c(nn(C)c2C#N)CN(C)C(=O)c2ccc(F)cc21
3930

====

assay_name: Plasma pharmacokinetics of lorlatinib at steady state (LC-MS/MS, non-compartmental analysis)
Format: in vivo, human
experimental_setup: human, plasma, oral, 60 mg/m2, Cycle 1 Day 15; Cohort A1; 60 mg/m2 per dose; individual patients
measurement_label: AUC(0-t) (ng·h/mL)
Expressed in ng·h/mL, but write only the number.

Any idea what its AUC(0-t) is? The compound is C[C@H]1Oc2cc(cnc2N)-c2c(nn(C)c2C#N)CN(C)C(=O)c2ccc(F)cc21
4140

====

assay_name: Plasma pharmacokinetics of lorlatinib at steady state (LC-MS/MS, non-compartmental analysis)
Format: in vivo, human
experimental_setup: human, plasma, oral, 95 mg/m2, Cohort A1, 95 mg/m2 per dose, C1D15, Median, N 9; read-out: Cmax
Text: Lorlatinib was isolated from human plasma by a liquid-iquid extraction procedure. […] A linear-log trapezoidal method was used [NT] A best-fit method was used to estimate terminal elimination and to extrapolate any plasma concentration versus time profiles to compute [NT].
measurement_label: Cmax
Please state the number and follow it with the unit.

Suppose we examine the compound C[C@H]1Oc2cc(cnc2N)-c2c(nn(C)c2C#N)CN(C)C(=O)c2ccc(F)cc21 ; what Cmax value has been reported?
1100 ng/mL

====

assay_name: Plasma pharmacokinetics of lorlatinib at steady state (LC-MS/MS, non-compartmental analysis)
Assay type: in vivo, human
experimental_setup: human, plasma, oral, 60 mg/m2, Cycle 1 Day 1; Cohort A1; 60 mg/m2 per dose; individual patients; read-out: Tmax
measurement_label: Tmax (h)
Please state the figure in h; there is no need to write the unit.

Given C[C@H]1Oc2cc(cnc2N)-c2c(nn(C)c2C#N)CN(C)C(=O)c2ccc(F)cc21 [Lorlatinib] , state its recorded Tmax.
1

====

assay_name: Plasma pharmacokinetics of lorlatinib at steady state (LC-MS/MS, non-compartmental analysis)
Assay type: in vivo, human
experimental_setup: Cycle 1 Day 1; Cohort A1; 95 mg/m2 per dose; individual patients; unit assumed
measurement_label: Tlag (h)
Dear colleague, please return just the value in h, with no unit written.

What does the record list as Tlag for C[C@H]1Oc2cc(cnc2N)-c2c(nn(C)c2C#N)CN(C)C(=O)c2ccc(F)cc21 ?
0

====

assay_name: Plasma pharmacokinetics of lorlatinib at steady state (LC-MS/MS, non-compartmental analysis)
Assay type: in vivo, human
experimental_setup: human, plasma, oral, 95 mg/m2, Cycle 1 Day 15, Cohort B2, 95 mg/m2 per dose; read-out: AUCINF_pred
measurement_label: AUC(0-inf) (ng·h/mL)
Write it as a number; the unit ng·h/mL goes unstated.

Could you share which AUC(0-inf) value was measured for C[C@H]1Oc2cc(cnc2N)-c2c(nn(C)c2C#N)CN(C)C(=O)c2ccc(F)cc21 ?
5730

====

assay_name: Plasma pharmacokinetics of lorlatinib at steady state (LC-MS/MS, non-compartmental analysis)
Type: in vivo, human
experimental_setup: Cycle 1 Day 15; Cohort A2; 150 mg per dose; individual patients; unit assumed
measurement_label: Tlag (h)
The answer is to be given in h; state only the numeric part.

Would you kindly share the measured Tlag for C[C@H]1Oc2cc(cnc2N)-c2c(nn(C)c2C#N)CN(C)C(=O)c2ccc(F)cc21 ?
0

Attribution: paper PMC10202811
